Measured absorption maximum of individual entries
# test.summary: solvent given as SMILES
# cond: in Cc1ccccc1
measured.property: absorption maximum (nm)

- O=Cc1ccc2nc(C#Cc3ccc(N(c4ccccc4)c4ccccc4)cc3)sc2c1: 411
- C(#Cc1nc2ccccc2s1)c1ccc(N(c2ccc(C#Cc3nc4ccccc4s3)cc2)c2ccc(C#Cc3nc4ccccc4s3)cc2)cc1: 404
- C(#Cc1cc2ccc3cc(C#Cc4ccccc4)cc4ccc(c1)c2c34)c1ccccc1: 410
- N#CC=C(c1ccc(N2c3ccccc3Oc3ccccc32)cc1)c1ccc(N2c3ccccc3Oc3ccccc32)cc1: 405
- CC1(C)c2ccccc2N(c2ccc(-c3ncc(C#N)cn3)cc2)c2ccccc21: 396
- O=C1c2cc(-n3c4ccccc4c4ccccc43)c(-n3c4ccccc4c4ccccc43)cc2C(=O)N1c1ccccc1: 388
- CC(C)(C)c1ccc2c(c1)c1cc(C(C)(C)C)ccc1n2-c1cc(C(=O)c2ccncc2)cc(-n2c3ccc(C(C)(C)C)cc3c3cc(C(C)(C)C)ccc32)c1: 396
- Cc1ccc(-n2c3ccccc3c3cc(C=C(C#N)C#N)ccc32)cc1: 406
